Each recorded value in this set is attributed to patent US9480259B2.

# test target: Arabidopsis thaliana SHMT
# experimental details: SHMT activity assay (ED50 SHMT), coupled with N5,N10-CH2-THF dehydrogenase, NADH at 340 nm
# Format: biochemical
# condition details: inhibition of initial velocity of Arabidopsis thaliana SHMT
pEC50: −log10 of the molar value.
quantity measured: pEC50

compound | test target | pEC50
Cc1n[nH]c2c1C(c1ccc(C(=O)O)s1)(C1CCC1)C(C#N)=C(N)O2 (stereo not shown) | Arabidopsis thaliana SHMT | > 5.00
Cc1csc(C2(C3CC3)C(C#N)=C(N)Oc3[nH]nc(C)c32)c1 (racemic) | Arabidopsis thaliana SHMT | > 6.00
Cc1n[nH]c2c1C(c1ccc(-c3cccs3)s1)(C1CCC1)C(C#N)=C(N)O2 (stereo not shown) | Arabidopsis thaliana SHMT | > 8.00

// switching to the query compound
Please report the recorded pEC50 for Cc1n[nH]c2c1C(c1cc(Cl)c3c(c1)OCCO3)(C(C)C)C(C#N)=C(N)O2 (stereo not shown) .
> 8.00

====

# test target: Arabidopsis thaliana SHMT
# experimental details: SHMT activity assay (ED50 SHMT), coupled with N5,N10-CH2-THF dehydrogenase, NADH at 340 nm
# Format: biochemical
# condition details: Table 2, Arabidopsis thaliana SHMT enzyme assay; values given as upper bounds
Measured EC50 values are reported for all entries that follow.

Known EC50 results, listed for orientation:
compound | quantity measured | reading
Cc1n[nH]c2c1C(c1cc(Cl)cc(-c3cccs3)c1)(C1CC1)C(C#N)=C(N)O2 (stereo not shown) [Compound 2.276] | EC50 | < 1000 nM
Cc1n[nH]c2c1C(c1cc(Cl)cc(Oc3cccc(Cl)c3)c1)(C1CC1)C(C#N)=C(N)O2 (racemic) [Compound 2.347] | EC50 | < 10 nM
Cc1n[nH]c2c1C(c1cc(C#N)cc(-c3ccc(Cl)cc3)c1)(C1CCC1)C(C#N)=C(N)O2 (stereo not shown) [Compound 2.333] | EC50 | < 10 nM

// switching to the query compound
Please report the recorded EC50 for Cc1n[nH]c2c1C(c1cc(Cl)cc(-c3cccc(F)c3)c1)(C1CCC1)C(C#N)=C(N)O2 (stereo not shown) [Compound 2.223] .
< 10 nM

====

# test target: Arabidopsis thaliana SHMT
# experimental details: SHMT activity assay (ED50 SHMT), coupled with N5,N10-CH2-THF dehydrogenase, NADH at 340 nm
# Format: biochemical
# condition details: Table 2, Arabidopsis thaliana SHMT enzyme assay; values given as upper bounds
# Protocol: Determination of the ED50 SHMT was carried out as described hereinunder. Purification of Arabidopsis thaliana SHMT The following buffers were used during the purification protocol: […] The rate of N5,N10-CH2-THF formation catalyzed by SHMT was monitored at 340 nm by coupling with excess N5,N10-CH2-THF dehydrogenase, which converts NAD+to NADH. […] Inhibition of initial velocity was determined by adding various inhibitors of the SHMT reaction and monitored as described. […]
pEC50: −log10 of the molar value.
quantity measured: pEC50

Known pEC50 results, listed for orientation:
molecule | pEC50
Cc1n[nH]c2c1C(c1cccc(C(F)F)c1)(C1CCC1)C(C#N)=C(N)O2 (stereo not drawn) | > 8.00
Cc1n[nH]c2c1C(c1cc(Cl)cc(C(F)(F)F)c1)(C1CCC1)C(C#N)=C(N)O2 (stereo not drawn) | > 8.00
Cc1n[nH]c2c1C(c1cc(C#N)cc(-c3cccc(C(F)(F)F)c3)c1)(C1CCC1)C(C#N)=C(N)O2 (stereo not drawn) | > 8.00
Cc1n[nH]c2c1C(c1cc(C#N)cc(C(F)(F)F)c1)(C(C)C)C(C#N)=C(N)O2 (stereo not drawn) | > 8.00

Please report the recorded pEC50 for Cc1n[nH]c2c1C(c1cc(Cl)cc(Cl)c1)(C1CC1(F)F)C(C#N)=C(N)O2 (stereo not drawn) .
> 8.00

Next molecule: CC(C)C1(c2cc(Cl)cc(C(F)(F)F)c2)C(C#N)=C(N)Oc2[nH]ncc21 (stereo not drawn)
> 8.00

Next molecule: CSc1cccc(C2(C3CCC3)C(C#N)=C(N)Oc3[nH]ncc32)c1 (stereo not drawn)
> 6.00

Next molecule: Cc1n[nH]c2c1C(c1cc(Br)cc(C#N)c1)(C1CCC1)C(C#N)=C(N)O2 (stereo not drawn)
> 8.00

Next molecule: Cc1n[nH]c2c1C(c1cc(Br)cc(C#N)c1)(C1CC1)C(C#N)=C(N)O2 (stereo not drawn)
> 8.00

Next molecule: Cc1n[nH]c2c1C(c1cc(Cl)cc(C(N)=O)c1)(C1CCC1)C(C#N)=C(N)O2 (stereo not drawn)
> 8.00

Next molecule: N#CC1=C(N)Oc2[nH]ncc2C1(c1cc(Br)cc(C#N)c1)C1(F)CC1 (stereo not drawn)
> 8.00

====

# test target: Arabidopsis thaliana SHMT
# experimental details: SHMT activity assay (ED50 SHMT), coupled with N5,N10-CH2-THF dehydrogenase, NADH at 340 nm
# Format: biochemical
# condition details: Arabidopsis thaliana SHMT enzyme assay; values given as upper bounds
# Protocol: Determination of the ED50 SHMT was carried out as described hereinunder. Purification of Arabidopsis thaliana SHMT The following buffers were used during the purification protocol: […] The rate of N5,N10-CH2-THF formation catalyzed by SHMT was monitored at 340 nm by coupling with excess N5,N10-CH2-THF dehydrogenase, which converts NAD+to NADH. […] Inhibition of initial velocity was determined by adding various inhibitors of the SHMT reaction and monitored as described. […]
Measured EC50 values are reported for all entries that follow.

compound | test target | reading
Cc1n[nH]c2c1C(c1cc(Cl)cc(N(C)C(=O)CCCc3nnn[nH]3)c1)(C1CCC1)C(C#N)=C(N)O2 (stereo not shown) | Arabidopsis thaliana SHMT | < 100 nM
Cc1n[nH]c2c1C(c1cc(C#N)cc(-c3cc(C(=O)O)cs3)c1)(C(C)C)C(C#N)=C(N)O2 (stereo not shown) | Arabidopsis thaliana SHMT | < 100 nM
Cc1n[nH]c2c1C(c1cc(C#N)cc(N(C)Cc3nnn[nH]3)c1)(C1CCC1)C(C#N)=C(N)O2 (stereo not shown) | Arabidopsis thaliana SHMT | < 100 nM

Please report the recorded EC50 for Cc1n[nH]c2c1C(c1cc(Cl)cc(SCc3nnn[nH]3)c1)(C1CCC1)C(C#N)=C(N)O2 (stereo not shown) .
< 10 nM

Next compound: Cc1n[nH]c2c1C(c1cc(C#N)cc(CCC#N)c1)(C(C)C)C(C#N)=C(N)O2 (stereo not shown)
< 10 nM

Next compound: Cc1n[nH]c2c1C(c1cc(Cl)cc(CCCC#N)c1)(C1CCC1)C(C#N)=C(N)O2 (stereo not shown)
< 10 nM

Next compound: COCCOCC(=O)N(C)c1cc(C#N)cc(C2(C(C)C)C(C#N)=C(N)Oc3[nH]nc(C)c32)c1 (stereo not shown)
< 10 nM

====

Measured pEC50 values are reported for all entries that follow.
# test target: Arabidopsis thaliana SHMT
# experimental details: SHMT activity assay (ED50 SHMT), coupled with N5,N10-CH2-THF dehydrogenase, NADH at 340 nm
# Assay type: biochemical
# condition details: Table 2, Arabidopsis thaliana SHMT enzyme assay; values given as upper bounds
pEC50: −log10 of the molar value.

Known pEC50 results, listed for orientation:
molecule | test target | pEC50
N#CC1=C(N)Oc2[nH]ncc2C1(c1cc(Cl)cc(Cl)c1)C1(F)CCC1 (centres unmarked) | Arabidopsis thaliana SHMT | > 7.00
N#CC1=C(N)Oc2[nH]ncc2C1(c1cc(Cl)cc(I)c1)C1CCC1 (centres unmarked) | Arabidopsis thaliana SHMT | > 8.00
Cc1n[nH]c2c1C(c1cc(C#N)cc(C(=O)O)c1)(C1CCC1)C(C#N)=C(N)O2 (centres unmarked) | Arabidopsis thaliana SHMT | > 6.00

Please report the recorded pEC50 for Cc1n[nH]c2c1C(c1cc(Br)cc(Br)c1)(C1CC=CC1)C(C#N)=C(N)O2 (centres unmarked) .
> 8.00

Next molecule: COc1n[nH]c2c1C(c1cc(Cl)cc(Cl)c1)(C(C)C)C(C#N)=C(N)O2 (centres unmarked)
> 8.00

Next molecule: COc1ccc(C2(C3CCCC3)C(C#N)=C(N)Oc3[nH]nc(C)c32)cc1C(F)(F)F (centres unmarked)
> 8.00

Next molecule: Cc1n[nH]c2c1C(c1cc(-c3nnn[nH]3)cc(-c3nnn[nH]3)c1)(C1CCC1)C(C#N)=C(N)O2 (centres unmarked)
> 5.00

Next molecule: Cc1n[nH]c2c1C(c1cc(Cl)cc(C#N)c1)(C1CCC1)C(C#N)=C(N)O2 (centres unmarked)
> 8.00

====

Measured pEC50 values are reported for all entries that follow.
# test target: Arabidopsis thaliana SHMT
# experimental details: SHMT activity assay (ED50 SHMT), coupled with N5,N10-CH2-THF dehydrogenase, NADH at 340 nm
# Format: biochemical
# condition details: Table 2; values given as upper bounds
pEC50: −log10 of the molar value.

Known pEC50 results, listed for orientation:
compound | reading
N#CC1=C(N)Oc2[nH]nc(C(F)F)c2C1(c1cc(Cl)cc(Cl)c1)C1CCC1 (stereo not shown) [Compound 2.168.] | > 7.00
CCC1(c2cc(F)c(O)c(F)c2)C(C#N)=C(N)Oc2[nH]nc(C)c21 (stereo not shown) [Compound 2.34.] | > 5.00
Cc1n[nH]c2c1C(c1cc(C#N)cc(-c3cccc(C(=O)O)c3)c1)(C1(F)CC1)C(C#N)=C(N)O2 (stereo not shown) [Compound 2.511] | > 8.00

Please report the recorded pEC50 for Cc1n[nH]c2c1C(c1cccc(C(F)(F)F)c1)(C(C)C)C(C#N)=C(N)O2 (stereo not shown) [Compound 2.137.] .
> 7.00
